subject of test: T1, wild-type human Ang-2 (hAng-2-WT) (human, UniProt O15123 19-496)
T1 construct: called full-length wild-type; also called Full-length wild-type human Ang-2
T1 sequence: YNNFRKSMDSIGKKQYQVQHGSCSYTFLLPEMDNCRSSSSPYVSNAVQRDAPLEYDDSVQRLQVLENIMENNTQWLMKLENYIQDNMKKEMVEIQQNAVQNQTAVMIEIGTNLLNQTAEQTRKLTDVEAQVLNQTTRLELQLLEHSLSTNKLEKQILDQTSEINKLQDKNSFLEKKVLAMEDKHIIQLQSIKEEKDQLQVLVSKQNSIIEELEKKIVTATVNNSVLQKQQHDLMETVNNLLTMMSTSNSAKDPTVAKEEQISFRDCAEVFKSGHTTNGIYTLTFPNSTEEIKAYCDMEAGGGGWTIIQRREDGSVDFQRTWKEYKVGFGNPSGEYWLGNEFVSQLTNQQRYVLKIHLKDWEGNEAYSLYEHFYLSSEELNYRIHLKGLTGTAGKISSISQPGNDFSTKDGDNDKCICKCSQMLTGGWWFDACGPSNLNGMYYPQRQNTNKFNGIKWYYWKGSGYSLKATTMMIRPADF
protocol: SPR, captured Ab
Could you please mark Condition met for values of T1/2 below 9 h and Condition not met for values at or above it?

Here's what some known entries look like.
>  <binder>
H1M732N (antibody, V domains shown) VH: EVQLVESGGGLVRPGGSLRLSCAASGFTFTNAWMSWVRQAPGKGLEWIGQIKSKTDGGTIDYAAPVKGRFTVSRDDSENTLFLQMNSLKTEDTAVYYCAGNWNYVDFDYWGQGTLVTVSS VL: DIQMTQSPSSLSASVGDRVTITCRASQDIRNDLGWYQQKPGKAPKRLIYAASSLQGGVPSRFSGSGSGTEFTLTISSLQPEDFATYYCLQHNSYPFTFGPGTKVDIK

>  <group>
Condition met

$$$$
>  <binder>
H1H695P (antibody, V domains shown) VH: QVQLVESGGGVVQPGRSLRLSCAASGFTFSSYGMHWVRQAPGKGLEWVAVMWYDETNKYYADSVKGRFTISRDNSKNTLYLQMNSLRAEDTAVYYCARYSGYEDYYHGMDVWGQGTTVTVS VL: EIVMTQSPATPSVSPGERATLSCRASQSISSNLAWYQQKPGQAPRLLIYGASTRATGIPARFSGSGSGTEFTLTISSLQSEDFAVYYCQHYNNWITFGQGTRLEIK

>  <group>
Condition not met

$$$$
>  <binder>
H1M724N (antibody, V domains shown) VH: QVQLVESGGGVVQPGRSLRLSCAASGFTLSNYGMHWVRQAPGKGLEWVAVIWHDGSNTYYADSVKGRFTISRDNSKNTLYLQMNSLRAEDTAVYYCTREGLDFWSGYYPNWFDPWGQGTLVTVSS VL: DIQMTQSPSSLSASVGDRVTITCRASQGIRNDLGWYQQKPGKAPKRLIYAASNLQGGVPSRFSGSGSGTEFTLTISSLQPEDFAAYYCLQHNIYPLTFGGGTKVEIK

>  <group>
Condition not met

$$$$
>  <binder>
H1H706P (antibody, V domains shown) VH: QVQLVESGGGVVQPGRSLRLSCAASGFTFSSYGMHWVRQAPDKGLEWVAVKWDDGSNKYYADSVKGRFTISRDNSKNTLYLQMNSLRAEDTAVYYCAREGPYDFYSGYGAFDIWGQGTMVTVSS VL: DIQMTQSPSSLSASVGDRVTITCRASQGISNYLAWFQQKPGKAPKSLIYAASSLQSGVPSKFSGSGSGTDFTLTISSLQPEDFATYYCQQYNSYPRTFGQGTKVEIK

>  <group>
Condition not met

$$$$

Lab note: next binder to report on.
-- ask Please determine if H1H732N (antibody, V domains shown) VH: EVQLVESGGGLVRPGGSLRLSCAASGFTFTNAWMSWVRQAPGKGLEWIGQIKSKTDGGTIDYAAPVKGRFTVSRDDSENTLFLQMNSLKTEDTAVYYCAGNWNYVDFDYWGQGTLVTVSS VL: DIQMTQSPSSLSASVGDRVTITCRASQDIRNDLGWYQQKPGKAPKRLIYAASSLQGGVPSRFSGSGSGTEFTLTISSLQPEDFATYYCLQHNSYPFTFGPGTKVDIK is below 9 h in terms of T1/2.
-- reply Condition met
